% cell viability, VeroVP30 cells: measured values
Please respond with the number in % and leave the unit unwritten.

Lab note: molecule "CC(=O)O[C@H]1C[C@@H](O)C(C)(C)[C@@H]2C[C@@H](OC(C)=O)[C@]3(C)[C@H](CC[C@@]4(C)[C@@H](c5ccoc5)OC(=O)[C@H]5O[C@@]534)[C@@]12C" tested on VeroVP30 cells; recorded % cell viability was 102

Given the molecule CCC(C)C(OC(C)=O)C(=O)O[C@H]1[C@H](O)[C@@H]2[C@@]3(C)C=CC(=O)C(C)(C)[C@@H]3C[C@@H](OC(=O)C(O)C(C)C)[C@@]2(C)[C@@]23O[C@@H]2C[C@@H](c2ccoc2)[C@]13C (stereo partly shown) and test system VeroVP30 cells, the measured % cell viability is 5

Item: CC(=O)O[C@@H]1CC2C(C)(C)[C@H](O)C=C[C@]2(C)C2CC[C@@]3(C)[C@H](c4ccoc4)OC(=O)C4OC43[C@@]21C (stereo partly shown) | System: VeroVP30 cells | % cell viability: 82

Tested system VeroVP30 cells; % cell viability recorded for CC(=O)OC1CC(OC(C)=O)C2(C)C(CC(OC(C)=O)C3(C)C2CCC2(C)C(c4ccoc4)OC(=O)C4OC423)C1(C)C (stereo not shown) [7-Epikhivorin] was 79

Item CC1(C)C(=O)C=C[C@]2(C)[C@H]3CC[C@@]4(C)[C@H](c5ccoc5)OC(=O)[C@H]5O[C@]54[C@]3(C)C=C[C@@H]12 [7-Desacetoxy-6,7-dehydrogedunin] was tested on VeroVP30 cells; the reported % cell viability is 70

Short answer on VeroVP30 cells for CC(=O)O[C@H]1C[C@@H](OC(C)=O)C(C)(C)C2C[C@@H](O)[C@]3(C)C(CC[C@@]4(C)[C@H](c5ccoc5)OC(=O)[C@H]5O[C@]543)[C@]21C (stereo partly shown) , % cell viability: 91

Response field % cell viability (VeroVP30 cells) for item "CC(=O)O[C@@H]1C[C@H]2C(C)(C)[C@H](O)C[C@H](O)[C@]2(C)[C@H]2CC[C@@]3(C)[C@H](c4ccoc4)OC(=O)[C@H]4O[C@]43[C@@]21C" : 78

Kindly note: VeroVP30 cells, CC(=O)O[C@@H]1CC2C(C)(C)C=CC(=O)[C@]2(C)C2CC[C@@]3(C)[C@H](c4ccoc4)OC(=O)C4OC43[C@@]21C (stereo partly shown) , % cell viability value reported: 86

% cell viability for VeroVP30 cells with input CC1(C)C2CC(=O)[C@]3(C)C(CC[C@@]4(C)[C@H](c5ccoc5)OC(=O)C5OC543)[C@@]2(C)[C@@H](O)C[C@H]1O (stereo partly shown) equals 78

For the molecule CC(=O)O[C@H]1C[C@@H](OC(C)=O)C(C)(C)C2CC(=O)[C@]3(C)C(CC[C@@]4(C)[C@H](c5ccoc5)OC(=O)[C@H]5O[C@]543)[C@]21C (stereo partly shown) , the measured % cell viability on VeroVP30 cells was 90

---

# Test system: VeroVP30 cells
# assay context: green monkey
result type: % cell viability
Number first, unit second: that is the form wanted.

// below: answered molecules
C=C1[C@@H]([C@@]2(C)C=CC(=O)C(C)(C)[C@@H]2CC(=O)OC)CC[C@@]2(C)[C@H](c3ccoc3)OC(=O)[C@H]3O[C@]132 [Andirobin]	91%
CCC(C)C(=O)O[C@@H]1C[C@@]2(C)[C@H](c3ccoc3)OC(=O)CC23OC2(C)O[C@]14[C@]1(C)[C@@H](CC(=O)OC)C5(C)CC1(O)[C@](O)(C5OC(=O)C1(C)OC1C)[C@@H](OC(C)=O)[C@]34O2 (stereo partly drawn) [Utilin]	75%

Continue with the molecule presented below.
% cell viability in this record for CC(=O)O[C@H]1C[C@@H](OC(C)=O)C(C)(C)[C@@H]2C[C@@H](OC(C)=O)[C@]3(C)[C@H](CC[C@@]4(C)[C@H](c5ccoc5)OC(=O)[C@H]5O[C@@]534)[C@@]12C [Khivorin] : 82%

---

# System: EbolaΔVP30-GFP virus
# measurement description: microbe, parasite or virus in culture
# Assay type: cell-based, Zaire ebolavirus
# assay context: Zaire ebolavirus
result type: pIC50
Just so you know, pIC50 here is -log10 of the concentration in molar units; reply with that number alone.

What the record says about CC(=O)O[C@@H]1C[C@H]2C(C)(C)C(=O)C=C[C@]2(C)[C@H]2CC[C@@]3(C)[C@H](c4ccoc4)OC(=O)[C@H]4O[C@]43[C@@]21C [Gedunin] : pIC50 is 6.48

---

# Test system: EbolaΔVP30-GFP virus
# measurement description: microbe, parasite or virus in culture
# Assay type: cell-based, Zaire ebolavirus
# assay context: Zaire ebolavirus, read-out: % GFP inhibition
Here the recorded inhibition at 5 µM is given for each entry.
Dear colleague, please return just the value in %, with no unit written.

Below are worked cases with known answers.
C=C1[C@@H]([C@@]2(C)C=CC(=O)C(C)(C)[C@@H]2CC(=O)OC)CC[C@@]2(C)[C@H](c3ccoc3)OC(=O)[C@H]3O[C@]132 [Andirobin]	-12
CC1(C)C(=O)C=C[C@]2(C)[C@H]3CC[C@@]4(C)[C@H](c5ccoc5)OC(=O)[C@H]5O[C@]54[C@]3(C)[C@H](O)C[C@@H]12 [Deacetylgedunin]	45
C=C1[C@@H]([C@@]2(C)[C@@H](OC(C)=O)CC(=O)O[C@](C)(COC(C)=O)[C@@H]2C(=O)OC)[C@@H](OC=O)[C@H](OC(=O)[C@H](O)[C@H](C)CC)[C@@]2(C)[C@H](c3ccoc3)CC(=O)[C@]12O [Prieurianin]	-17
CC(=O)O[C@H]1C[C@@H](OC(C)=O)C(C)(C)[C@@H]2C[C@@H](OC(C)=O)[C@]3(C)[C@H](CC[C@@]4(C)[C@H](c5ccoc5)OC(=O)[C@H]5O[C@@]534)[C@@]12C [Khivorin]	0
CC(=O)O[C@@H]1C[C@H]2C(C)(C)C(=O)C=C[C@]2(C)[C@H]2CC[C@@]3(C)[C@H](c4ccoc4)OC(=O)[C@H]4O[C@]43[C@@]21C [Gedunin]	102

GET /value?item= CCC(C)C(=O)O[C@@H]1C[C@@]2(C)[C@H](c3ccoc3)OC(=O)CC23OC2(C)O[C@]14[C@]1(C)[C@@H](CC(=O)OC)C5(C)CC1(O)[C@](O)(C5OC(=O)C1(C)OC1C)[C@@H](OC(C)=O)[C@]34O2 (stereo partly shown) [Utilin] &field=inhibition at 5 µM returns 4

CC(=O)O[C@@H]1C[C@H]2C(C)(C)C(=O)CC[C@]2(C)[C@H]2CC[C@@]3(C)[C@H](c4ccoc4)OC(=O)[C@H]4O[C@]43[C@@]21C [Dihydrogedunin] yielded inhibition at 5 µM of 96

---

# Tested on: VeroVP30 cells
# assay context: green monkey
result type: % cell viability (%)
Return type: number; implicit unit %.

In plain terms, "CC(=O)O[C@@H]1C[C@H]2C(C)(C)C(=O)C=C[C@]2(C)[C@H]2CC[C@@]3(C)[C@H](c4ccoc4)OC(=O)[C@H]4O[C@]43[C@@]21C" has a documented % cell viability of 77

The molecule listed as CC(=O)O[C@@H]1C[C@H]2C(C)(C)C(=O)CC[C@]2(C)[C@H]2CC[C@@]3(C)[C@H](c4ccoc4)OC(=O)[C@H]4O[C@]43[C@@]21C [Dihydrogedunin] has a reported % cell viability of 79

Input "CC1(C)C(=O)C=C[C@]2(C)[C@H]3CC[C@@]4(C)[C@H](c5ccoc5)OC(=O)[C@H]5O[C@]54[C@]3(C)[C@H](O)C[C@@H]12" . Output % cell viability: 86

# % cell viability (molecule: "C=C1[C@@H]([C@@]2(C)[C@@H](OC(C)=O)CC(=O)O[C@](C)(COC(C)=O)[C@@H]2C(=O)OC)[C@@H](OC=O)[C@H](OC(=O)[C@H](O)[C@H](C)CC)[C@@]2(C)[C@H](c3ccoc3)CC(=O)[C@]12O" ) is 89

---

# measurement description: in vitro
# assay context: green monkey
result type: CC50

Per the record, "CC(=O)O[C@@H]1C[C@H]2C(C)(C)C(=O)C=C[C@]2(C)[C@H]2CC[C@@]3(C)[C@H](c4ccoc4)OC(=O)[C@H]4O[C@]43[C@@]21C" has CC50 of > 10 µM

---

// values below are reported % cell viability
# Test system: VeroVP30 cells
Give just the numeric value; % need not be written.

Completed entries (count: 5):
CC(=O)O[C@H]1CC[C@]2(C)[C@H]3CC[C@@]4(C)[C@H](c5ccoc5)OC(=O)[C@H]5O[C@]54[C@]3(C)[C@H](OC(C)=O)C[C@H]2C1(C)C [3beta-Acetoxydeoxodihydrogedunin]	80
CC1(C)C(=O)[C@@H]2O[C@@H]2[C@@]2(C)C1C[C@@H](O)[C@]1(C)C2CC[C@@]2(C)[C@H](c3ccoc3)OC(=O)C3OC321 (stereo partly drawn) [1,2alpha-Epoxydeacetoxydihydrogedunin]	77
CC(=O)O[C@@H]1C[C@H]2C(C)(C)CCC(=O)[C@]2(C)[C@H]2CC[C@@]3(C)[C@H](c4ccoc4)OC(=O)[C@H]4O[C@]43[C@@]21C [2,3-Dihydroisogedunin]	91
CC(=O)O[C@@H]1CC2C(C)(C)C(=O)C3OC3[C@]2(C)C2CC[C@@]3(C)[C@H](c4ccoc4)OC(=O)C4OC43[C@@]21C (stereo partly shown) [Epoxygedunin]	71
CC1(C)C(=O)C=C[C@]2(C)[C@H]3CC[C@@]4(C)[C@H](c5ccoc5)OC(=O)[C@H]5O[C@]54[C@]3(C)C(=O)C[C@@H]12 [Deacetoxy-7-oxogedunin]	79

Okay, now this molecule:
The molecule listed as CC(=O)OC1CC2C(C)(C)[C@@H](O)CC[C@]2(C)C2CC[C@]3(C)[C@H](c4ccoc4)OC(=O)[C@H]4O[C@]43[C@]12C (stereo partly drawn) [3beta-Hydroxydeoxodihydrogedunin] shows % cell viability equal to 79
